experiment: NCI Yeast Anticancer Drug Screen. Data for the sgs1 mgt1 strain (AID 161);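 note: 0% = growth of cultures given vehicle only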; conditions: S. cerevisiae sgs1 mgt1 strain, at 50.0 µM, hits give high values
The panel holds about 79,000 compounds, 15% with a hit somewhere; the sample as a whole holds those more often.
reported property: growth inhibition (%)
Response body: numeric value in %, unit text excluded.

Input: Answer with reported growth inhibition of COc1ccc(/C=C2\N=C(SC)NC2=O)cc1
Output: 25.9

More entries:
Input: For the molecule COc1ccc(/C=N/N2CN(C(C)C(=O)O)C(O)(CCl)N=C2N)cc1OC (centres undefined) , give its reported growth inhibition.
Output: -3

Input: Input NC(=O)C1=CCCC1 , output reported growth inhibition.
Output: 0.5
